Molecular target: T1, HLA-DR DRB5*0101 (human)
T1 chain 1: not shown
T1 chain 2: not shown
Assay: radioligand inhibition, purified HLA-DR
Conditions: remark: other sources report otherwise
pIC50: −log10 of the molar value.
Criterion: pIC50 meeting or surpassing 6. Met: Fulfilled. Not met: Not fulfilled.

Worked examples, 4 binders total:
binder	assigned category
FRELVSEFSRMARDP [Peptide 9019.0096]	Fulfilled
VCGIQNSVSANRSDP [CEA.570 peptide 9012.0135]	Fulfilled
SITVSASGTSPGLSA [CEA.671 peptide 9919.0143]	Not fulfilled
LLTFWNPPTTAKLTI [CEA.24 peptide 9019.0105]	Fulfilled

Does SSYLSGANLNLSCHS [CEA.603 peptide 9012.0137] have a reported pIC50 of at least 6?
Not fulfilled

Determine whether this binder has pIC50 no lower than 6: KLCIYTDNSIRPEEL [Cyclin D1.123]
Not fulfilled

Record ICELHCPALVTYNTD [Her2/neu.263] ; criterion: pIC50 no lower than 6. Met?
Not fulfilled

Kindly determine if pIC50 recorded for MRKIVATWMLEVCEE [Cyclin D1.56] is above or exactly 6.
Not fulfilled

# check: pIC50 of ERGPLEHLYSLHIPN [Peptide 9019.0190] is greater than or equal to 6
Not fulfilled

Hi, just wondering whether RPRFRELVSEFSRMA [Peptide 9019.0095] shows pIC50 of 6 or higher.
Fulfilled

Decide: is the reported value of pIC50 for TEILKGGVLIQRNPQ [Her2/neu.146] equal to or greater than 6?
Not fulfilled

# check: pIC50 of GYVIGTQQATPGPAY [CEA.81 peptide 9019.0110] is greater than or equal to 6
Not fulfilled

Reported pIC50 reaches at least 6 for TVGIMIGVLVGVALI [CEA.688 peptide 9019.05] ?
Fulfilled

Please tell me: is the binder TTPVTGASPGGLREL [Her2/neu.126] at or over 6 in terms of pIC50?
Not fulfilled

Determine whether measured pIC50 meets or exceeds 6 for FYTLHVIKSDLVNEE [CEA.119 peptide 9019.0114]
Not fulfilled

The reported measurements were obtained from patent US20100310640A1.
